# ASSAY NAME: Percentage of tracer or metabolite (acid metabolites) in baboon plasma at 30 min after injection of the compound
# Format: ADME, cell-free
# CONDITION PARAMETERS: cercopithecidae, 0.5 h
Tracer listing for selected compounds.

{"columns": ["COMPOUND", "Tracer"],
 "data": [
  ["COC(=O)C1C2CCC(C[C@@H]1OC(=O)c1ccccc1I)N2C (some centres undefined)", "69%"],
  ["COC(=O)C1C2CCC(C[C@@H]1OC(=O)c1ccc(I)cc1)N2C (some centres undefined)", "71%"],
  ["COC(=O)C1C2CCC(C[C@@H]1OC(=O)c1cccc(I)c1)N2C (some centres undefined)", "51%"],
  ["COC(=O)[C@H]1[C@@H](OC(=O)c2ccccc2)C[C@@H]2CC[C@H]1N2C", "60%"]
]}
